Tested on: H661 cells (HER4 overexpression)
PROTOCOL_TEXT: cells
Type: cell-based
CONDITION_SET: Homo sapiens, NCI-H661, 72 h, read-out: IC50 proliferation

{"columns": ["COMPOUND", "UNITS_LABEL", "IC50"],
 "data": [
  ["C=CC(=O)Nc1cc(Nc2nccc(-c3cn(C)c4ccccc34)n2)c(OC)cc1N(C)CCN(C)C [Osimertinib]", "µM", 4.52]
]}

###

System: CUTO14 cells (EGFR exon 20 insertion p.A767_V769dupASV)
PROTOCOL_TEXT: cells
CONDITION_SET: Homo sapiens, CUTO14, 72 h, read-out: IC50 proliferation
REPORTED_PROPERTY: IC50 (nM)

{"columns": ["COMPOUND", "QUANTITATIVE_RESULT"],
 "data": [
  ["C=CC(=O)Nc1cc(Nc2nccc(-c3cn(C)c4ccccc34)n2)c(OC)cc1N(C)CCN(C)C [Osimertinib]", 303]
]}

###

PROTOCOL_TEXT: Mouse plasma protein binding
Assay type: in vitro ADME
REPORTED_PROPERTY: fraction unbound

{"columns": ["COMPOUND", "QUANTITATIVE_RESULT"],
 "data": [
  ["CN(C)C/C=C/C(=O)Nc1cc2c(Nc3ccc(F)c(Cl)c3)ncnc2cc1O[C@H]1CCOC1 [Afatinib]", 0.0577]
]}

###

PROTOCOL_TEXT: Human plasma protein binding
Format: in vitro ADME

{"columns": ["SMILES_ENTRY", "fraction unbound"],
 "data": [
  ["CN(C)C/C=C/C(=O)Nc1cc2c(Nc3ccc(F)c(Cl)c3)ncnc2cc1O[C@H]1CCOC1", 0.0821]
]}

###

Test system: CUTO17 cells (EGFR exon 20 insertion p.N771_773dupNPH)
PROTOCOL_TEXT: cells
CONDITION_SET: Homo sapiens, CUTO17, 72 h, read-out: IC50 proliferation

{"columns": ["MOLECULE", "UNITS_LABEL", "IC50"],
 "data": [
  ["C=CC(=O)Nc1cc(Nc2nccc(-c3cn(C)c4ccccc34)n2)c(OC)cc1N(C)CCN(C)C [Osimertinib]", "nM", 426]
]}
